target: Mu-type opioid receptor (Homo sapiens) (UniProt P35372); experiment: Ratio of potencies against Mu receptor to that of kappa receptor of monkey; details: Cercopithecidae; target entry is the homologue from another species
Sequence (P35372 whole entry): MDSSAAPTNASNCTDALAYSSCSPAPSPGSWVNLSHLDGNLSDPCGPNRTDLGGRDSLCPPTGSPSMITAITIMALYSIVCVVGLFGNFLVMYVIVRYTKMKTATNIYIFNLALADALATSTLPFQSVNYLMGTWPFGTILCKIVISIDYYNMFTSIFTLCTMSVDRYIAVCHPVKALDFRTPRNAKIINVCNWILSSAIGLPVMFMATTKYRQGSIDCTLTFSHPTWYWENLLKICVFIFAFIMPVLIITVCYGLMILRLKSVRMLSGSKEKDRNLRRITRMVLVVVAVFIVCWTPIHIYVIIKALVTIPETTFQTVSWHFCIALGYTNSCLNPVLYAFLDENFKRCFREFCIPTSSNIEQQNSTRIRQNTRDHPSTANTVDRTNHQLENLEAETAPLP

structure_notation	Ratio
CCCCCCN1CC[C@]2(C)c3cc(O)ccc3CC1[C@@H]2C	1.1
CCCN1CC[C@@]2(C)c3cc(O)ccc3CC1[C@H]2C	0.5
C[C@H]1C2Cc3ccc(O)cc3[C@@]1(C)CCN2C	4
CCCCCCN1CC[C@@]2(C)c3cc(O)ccc3CC1[C@H]2C	7.1
CCCCCCCN1CC[C@]2(C)c3cc(O)ccc3CC1[C@H]2C	2.8

----------
In this section, each of the molecules is paired with its reported Ratio.
target: Glutamate NMDA receptor (Rattus norvegicus) (UniProt P35439+Q00959+Q00960+Q00961+Q62645+Q8VHN2+Q9R1M7); assay: Ratio of potencies against PCP receptor to that of Mu receptor of rat; assay type: protein-complex assay
measured_property: Ratio

structure_notation	meas_value
CCCN1CC[C@]2(C)c3cc(O)ccc3CC1[C@@H]2C	35
C[C@@H]1C2Cc3ccc(O)cc3[C@]1(C)CCN2C	0.008
CCCCCCCCCCN1CC[C@]2(C)c3cc(O)ccc3CC1[C@@H]2C	20
CCCCCCCN1CC[C@]2(C)c3cc(O)ccc3CC1[C@H]2C	11
CCCCCCCN1CC[C@]2(C)c3cc(O)ccc3CC1[C@@H]2C	640
CCCCCCCCN1CC[C@]2(C)c3cc(O)ccc3CC1[C@H]2C	1.5
CCCCN1CC[C@@]2(C)c3cc(O)ccc3CC1[C@H]2C	0.3
CCCCCCCCCCN1CC[C@]2(C)c3cc(O)ccc3CC1[C@H]2C	0.9
CCCCCCCCCN1CC[C@]2(C)c3cc(O)ccc3CC1[C@H]2C	3
CCCCCCN1CC[C@]2(C)c3cc(O)ccc3CC1[C@@H]2C	712
CCCN1CC[C@@]2(C)c3cc(O)ccc3CC1[C@H]2C	0.1
CCCCCCCCN1CC[C@]2(C)c3cc(O)ccc3CC1[C@@H]2C	266
CCCCCCN1CC[C@@]2(C)c3cc(O)ccc3CC1[C@H]2C	9.2
C[C@H]1C2Cc3ccc(O)cc3[C@@]1(C)CCN2C	108
CCCCN1CC[C@]2(C)c3cc(O)ccc3CC1[C@@H]2C	47
CCCCCCCCCN1CC[C@]2(C)c3cc(O)ccc3CC1[C@@H]2C	41

----------
biological target: Glutamate NMDA receptor; experiment: Inhibition using [3H]TCP in homogenate of rat brain
Just a reminder that ties go to N: only Ki strictly below 3000 nM counts as Y.

structure_notation	discrete_label
CCCN1CC[C@@]2(C)c3cc(O)ccc3CC1[C@H]2C	Y
CCCCCCCN1CC[C@]2(C)c3cc(O)ccc3CC1[C@@H]2C	N
CCN1CC[C@@]2(C)c3cc(O)ccc3CC1[C@H]2C	Y
CCCCCCN1CC[C@@]2(C)c3cc(O)ccc3CC1[C@H]2C	N
CCCCCCCCCCN1CC[C@]2(C)c3cc(O)ccc3CC1[C@H]2C	N
CCN1CC[C@]2(C)c3cc(O)ccc3CC1[C@@H]2C	Y
CCCCN1CC[C@@]2(C)c3cc(O)ccc3CC1[C@H]2C	Y
C[C@@H]1C2Cc3ccc(O)cc3[C@]1(C)CCN2	Y
CCCCCCN1CC[C@]2(C)c3cc(O)ccc3CC1[C@@H]2C	N
CCCCCN1CC[C@]2(C)c3cc(O)ccc3CC1[C@@H]2C	Y
C[C@H]1C2Cc3ccc(O)cc3[C@@]1(C)CCN2	Y
CCCCCCCN1CC[C@]2(C)c3cc(O)ccc3CC1[C@H]2C	Y
